B1: POU domain, class 4, transcription factor 2, residues 256 to 327; numbered along this chain, Q12837 (parent)
chain: RDLEAFAERFKQRRIKLGVTQADVGSALANLKIPGVGSLSQSTICRFESLTLSHNNMIALKPILQAWLEEAE

Variants of: B1
assay_details: abundance fitness (aPCA) (normalised: wild type 0, dead -1); higher = more abundant; growth selection in yeast, the domain comes from the species named
recorded_conditions: Homo sapiens
So basically: abundance fitness at -0.5 or higher? That is Satisfied. Lower than -0.5? That is Not satisfied.

Please review the following examples before continuing.
   mutation_string  assigned_category
0             A22T          Satisfied
1             T20D          Satisfied

Check the entry I15G : does abundance fitness equal or exceed -0.5? Not satisfied

Check the entry N55D : does abundance fitness equal or exceed -0.5? Satisfied

Check the entry L28P : does abundance fitness equal or exceed -0.5? Not satisfied

Check the entry L31W : does abundance fitness equal or exceed -0.5? Satisfied

Check the entry L50Y : does abundance fitness equal or exceed -0.5? Satisfied

Check the entry L28S : does abundance fitness equal or exceed -0.5? Not satisfied

Check the entry I58L : does abundance fitness equal or exceed -0.5? Satisfied

Check the entry S42R : does abundance fitness equal or exceed -0.5? Satisfied

Check the entry K32N : does abundance fitness equal or exceed -0.5? Satisfied
